TARGET_OR_SYSTEM: CDK2 (Homo sapiens, UniProt P24941)
Construct: endogenous in cells; host or cells: MKN1 cells
ASSAY_PROTOCOL: CDK2 degradation in MKN1 cells (AlphaLISA)
Assay type: cell-based
Design: key: Mean external-Abs DC50 (nM): A (<100 nM); B (≥100-500 nM); C (>500-1000 nM); D (>1000 nM); E (not achieved)
CONDITION_INFO: 14 h incubation
READOUT_LABEL: CDK2 degradation 14 h: Mean external-Abs DC50 (nM)

Sample records with CDK2 degradation 14 h: Mean external-Abs DC50 (nM):
| COMPOUND | TARGET_OR_SYSTEM | REPORTED_MEASUREMENT |
| --- | --- | --- |
| Cc1cc(S(=O)(=O)N2CCC(CN3CCN(c4cccc5c4n(C)c(=O)n5C4CCC(=O)NC4=O)CC3)CC2)ccc1Nc1ncc2ccc(=O)n(C3CCCC3)c2n1 (centres unmarked) [I-451] | CDK2 (Homo sapiens, UniProt P24941) | E |
| Cc1cc(S(=O)(=O)C2CC3(CCN(CC4CCN(c5cccc(C6CCC(=O)NC6=O)c5)CC4)CC3)C2)ccc1Nc1ncc2cc(Cl)c(=O)n(C3CCCC3)c2n1 (centres unmarked) [I-80] | CDK2 (Homo sapiens, UniProt P24941) | E |
| Cc1cc(S(=O)(=O)N2CCC(N(C)CC3(F)CCN(c4cccc5c4n(C)c(=O)n5C4CCC(=O)NC4=O)CC3)CC2)ccc1Nc1ncc2cc(Cl)c(=O)n(C3CCCC34CC4)c2n1 (centres unmarked) [I-357] | CDK2 (Homo sapiens, UniProt P24941) | E |
| Cc1cc(S(=O)(=O)CCCO[C@H]2CC[C@H](CN3CCC(c4ccc5c(c4)n(C4CCC(=O)NC4=O)c(=O)n5C)CC3)CC2)ccc1Nc1ncc2cc(C(F)F)c(=O)n(C(C)C)c2n1 (some centres unmarked) [I-6] | CDK2 (Homo sapiens, UniProt P24941) | E |

// switching to the query compound
Incoming: Look at this compound and give its reported CDK2 degradation 14 h: Mean external-Abs DC50 (nM). Cc1cc(S(=O)(=O)N2CCC(CN(C)C3CN(c4cccc5c4n(C)c(=O)n5C4CCC(=O)NC4=O)C3)CC2)ccc1Nc1ncc2cc(Cl)c(=O)n(C3CCCC3)c2n1 (centres unmarked) [I-422]
Outgoing: E

---

TARGET_OR_SYSTEM: CDK2 (Homo sapiens, UniProt P24941)
Construct: endogenous in cells; host or cells: MKN1 cells
ASSAY_PROTOCOL: CDK2 degradation in MKN1 cells (AlphaLISA)
Assay type: cell-based
CONDITION_INFO: 14 h incubation, read-out: CDK2 degradation 14 h: Mean external-Abs DC50
READOUT_LABEL: DC50

| MOLECULE | READOUT_LABEL | REPORTED_MEASUREMENT |
| --- | --- | --- |
| O=C1CCC(c2ccc(N3CCN(C[C@H]4CC[C@H](NS(=O)(=O)c5ccc(Nc6ncc(C(F)(F)F)c(-c7cnn(C8CCOCC8)c7)n6)c(F)c5)CC4)CC3)cc2Cl)C(=O)N1 (some centres unmarked) [I-818] | DC50 | < 0.1 µM |
| Cc1cc(S(=O)(=O)NC(C)COC2CCC(CN3CCN(c4ccc5c(c4F)n(C)c(=O)n5C4CCC(=O)NC4=O)CC3)CC2)ccc1Nc1ncc(C(F)(F)F)c(N2CCCC(C)(O)C2)n1 (centres unmarked) [I-846] | DC50 | < 0.1 µM |
| Cc1cc(S(=O)(=O)NCCCN2CCN(CC3CCN(c4ccc5c(c4)n(C)c(=O)n5C4CCC(=O)NC4=O)CC3)CC2)ccc1Nc1ncc2cc(Cl)c(=O)n(C3CCCC3)c2n1 (centres unmarked) [I-431] | DC50 | < 0.1 µM |

Incoming: Look at this molecule and give its reported DC50. Cc1cc(S(=O)(=O)N[C@@H]2CCN(CC3CCN(c4ccc(C5CCC(=O)NC5=O)cc4F)CC3)C[C@H]2F)ccc1Nc1ncc(C(F)(F)F)c(N2CCC[C@](C)(O)C2)n1 (some centres unmarked) [I-804]
Outgoing: < 0.1 µM

Incoming: Thanks! And Cc1cc(S(=O)(=O)C2CCN(CCCN3CCN(c4cccc5c4n(C)c(=O)n5C4CCC(=O)NC4=O)CC3)CC2)ccc1Nc1ncc2cc(Cl)c(=O)n(C(C)C)c2n1 (centres unmarked) [I-47] ?
Outgoing: < 0.1 µM

Incoming: Thanks! And Cc1cc(S(=O)(=O)[C@H]2CC[C@H](CN(C)C3CCN(c4cccc5c4n(C)c(=O)n5C4CCC(=O)NC4=O)CC3)CC2)ccc1Nc1ncc2c(n1)N(C1CCCC1)C(=O)C21CC1 (some centres unmarked) [I-53] ?
Outgoing: < 0.1 µM

Incoming: Thanks! And CC1(O)CCN(c2nc(Nc3ccc(S(=O)(=O)NC4CCN(CC5CCN(c6ccc(C7CCC(=O)NC7=O)c(F)c6)CC5)CC4F)cc3F)ncc2C(F)(F)F)CC1 (centres unmarked) [I-1051] ?
Outgoing: < 0.1 µM

Incoming: Thanks! And Cc1cc(S(=O)(=O)C2CC3(CCN(CC4CCN(c5ccc(NC6CCC(=O)NC6=O)cc5C)CC4)CC3)C2)ccc1Nc1ncc2cc(Cl)c(=O)n(C3CCCC3)c2n1 (centres unmarked) [I-75] ?
Outgoing: 0.1 to 0.5 µM

Incoming: Thanks! And Cc1cc(S(=O)(=O)NCCCCC2CCN(c3ccc(N4CCC(=O)NC4=O)cc3)CC2)ccc1Nc1ncc2cc(Cl)c(=O)n(C3CCCC3)c2n1 [I-411] ?
Outgoing: > 1 µM

Incoming: Thanks! And Cc1cc(S(=O)(=O)C2CC3(CCN(CC4CCN(c5ccc6c(c5F)n(C)c(=O)n6C5CCC(=O)NC5=O)CC4)CC3)C2)ccc1Nc1ncc(C(F)(F)F)c(N2CCC(C(C)(C)O)C2)n1 (centres unmarked) [I-505] ?
Outgoing: < 0.1 µM

Incoming: Thanks! And Cc1cc(S(=O)(=O)C2CC3(CCN(CC4CCN(c5cccc(OC6CCC(=O)NC6=O)c5)CC4)CC3)C2)ccc1Nc1ncc2cc(Cl)c(=O)n(C3CCCC3)c2n1 (centres unmarked) [I-74] ?
Outgoing: 0.1 to 0.5 µM

---

TARGET_OR_SYSTEM: CDK2 (Homo sapiens, UniProt P24941)
Construct: endogenous in cells; host or cells: MKN1 cells
ASSAY_PROTOCOL: CDK2 degradation in MKN1 cells (AlphaLISA)
Type: cell-based
CONDITION_INFO: 14 h incubation, read-out: CDK2 degradation 14 h: Mean external-Abs DC50
READOUT_LABEL: DC50

| MOLECULE | DC50 |
| --- | --- |
| Cn1c(=O)n(C2CCC(=O)NC2=O)c2cccc(CCCOCCOCCOCCOCC(=O)N3CCC(Nc4ncc5cc(C(F)F)c(=O)n([C@@H]6CCC[C@]6(C)O)c5n4)CC3)c21 (stereo partly drawn) [I-502] | > 1000 nM |
| Cc1cc(S(=O)(=O)C2CC3(CCN(CC4CCN(c5cccc6c5n(C)c(=O)n6C5CCC(=O)NC5=O)CC4)CC3)C2)ccc1Nc1ncc2cc(Cl)c(=O)n(C3CCCC3)c2n1 (stereo not drawn) [I-58] | < 100 nM |
| Cc1cc(S(=O)(=O)N2CCC(CCN3CCN(c4ccc5c(c4F)n(C)c(=O)n5C4CCC(=O)NC4=O)CC3)CC2)ccc1Nc1ncc2ccc(=O)n(C3CCCC3)c2n1 (stereo not drawn) [I-287] | < 100 nM |

Incoming: Short answer please: DC50, CDK2 (Homo sapiens, UniProt P24941), entry Cc1cc(S(=O)(=O)N[C@@H](C)CO[C@H]2CC[C@H](CN3CCN(c4ccc5c(c4F)n(C)c(=O)n5C4CCC(=O)NC4=O)CC3)CC2)ccc1Nc1ncc2ccc(=O)n(C3CCCC3)c2n1 (stereo partly drawn) [I-828]
Outgoing: < 100 nM

Incoming: Thanks! And Cc1cc(S(=O)(=O)NCCOC2CCC(CN3CCC(c4ccc5c(c4)n(C)c(=O)n5C4CCC(=O)NC4=O)CC3)CC2)ccc1Nc1ncc2ccc(=O)n(C3CCCC3)c2n1 (stereo not drawn) [I-468] ?
Outgoing: < 100 nM

Incoming: Thanks! And Cc1cc(S(=O)(=O)NC2CC(N3CCN(CC4CCN(c5cccc6c5n(C)c(=O)n6C5CCC(=O)NC5=O)CC4)CC3)C2)ccc1Nc1ncc(C(F)(F)F)c(N2CCCC(C)(O)C2)n1 (stereo not drawn) [I-834] ?
Outgoing: < 100 nM

---

TARGET_OR_SYSTEM: CDK2 (Homo sapiens)
Construct: endogenous in cells; host or cells: MKN1 cells
ASSAY_PROTOCOL: CDK2 degradation in MKN1 cells (AlphaLISA)
Type: cell-based
CONDITION_INFO: 14 h incubation, read-out: CDK2 degradation 14 h: Mean external-Abs DC50
// DC50 lookup, one value per entry

Incoming: Look at this molecule and give its reported DC50. C[C@]1(O)CCC[C@H]1n1c(=O)c(C(F)F)cc2cnc(NC3CCN(C(=O)COCCOCCNc4cccc5c4C(=O)N(C4CCC(=O)NC4=O)C5=O)CC3)nc21 (some centres unmarked)
Outgoing: > 1000 nM

Incoming: Thanks! And CC1CC(NS(=O)(=O)c2ccc(Nc3ncc(C(F)(F)F)c(N4CCCC(C)(O)C4)n3)c(F)c2)CCN1CC1CCN(c2ccc(C3CCC(=O)NC3=O)c(F)c2)CC1 (centres unmarked) [I-1060] ?
Outgoing: < 100 nM

Incoming: Thanks! And Cc1cc(S(=O)(=O)NC2CC(N3CCN(CC4(F)CCN(c5cccc6c5n(C)c(=O)n6C5CCC(=O)NC5=O)CC4)CC3)C2)ccc1Nc1ncc(C(F)(F)F)c(N2CCCC(C)(O)C2)n1 (centres unmarked) ?
Outgoing: < 100 nM

Incoming: Thanks! And Cc1cc(S(=O)(=O)NC2CCC(CN3CCN(c4ccc(C(=O)NC5CCC(=O)NC5=O)cc4C)CC3)CC2)ccc1Nc1ncc(C(F)(F)F)c(N2CCCC(C)(O)C2)n1 (centres unmarked) ?
Outgoing: 100 to 500 nM

Incoming: Thanks! And Cc1cc(S(=O)(=O)N[C@H]2C[C@H](N3CCN(CC4CCN(c5cccc6c5n(C)c(=O)n6C5CCC(=O)NC5=O)CC4)CC3)C2)ccc1Nc1ncc(C(F)(F)F)c(N2CCC[C@@H](C(F)F)C2)n1 (some centres unmarked) ?
Outgoing: < 100 nM
